experiment summary: Inhibition of Hepatitis C virus genotype 1b NS3/4A protease assessed as substrate cleavage using Ac-C(Eu)DDMEEAbu(COO)ASK(QSY7)-amide as substrate incubated for 30 mins prior to substrate addition by time-resolved fluorescence assay
Set-up: species or system Hepatitis C virus subtype 1b
IC50 for assorted molecules

{"columns": ["mol smiles", "IC50, pM"],
 "data": [
  ["C=C[C@@H]1C[C@]1(NC(=O)[C@@H]1C[C@@H]2CN1C(=O)[C@H](C1CCCCC1)NC(=O)O[C@@H]1C[C@H]1CCCCCc1c(nc3ccccc3c1O[C@H]1C[C@H]3CC[C@@H](C1)N3)O2)C(=O)NS(=O)(=O)C1(C)CC1", 10],
  ["C=C[C@@H]1C[C@]1(NC(=O)[C@@H]1C[C@@H]2CN1C(=O)[C@H](C1CCCCC1)NC(=O)O[C@@H]1C[C@H]1CCCCCc1c(nc3ccccc3c1O[C@H]1C[C@H]3CC[C@@H](C1)N3CCOC)O2)C(=O)NS(=O)(=O)C1(C)CC1", 20]
]}

###

experiment summary: Inhibition of Hepatitis C virus genotype 1b NS3/4A protease assessed as substrate cleavage using Ac-C(Eu)DDMEEAbu(COO)ASK(QSY7)-amide as substrate incubated for 30 mins prior to substrate addition by time-resolved fluorescence assay
Set-up: species or system Hepatitis C virus subtype 1b
outcome measure: IC50 (nM)

{"columns": ["mol smiles", "outcome measure", "units text", "endpoint result"],
 "data": [
  ["C=C[C@@H]1C[C@]1(NC(=O)[C@@H]1C[C@@H]2CN1C(=O)[C@H](C1CCCCC1)NC(=O)O[C@@H]1C[C@H]1CCCCCc1c(nc3ccccc3c1OC1CCN(C)CC1)O2)C(=O)NS(=O)(=O)C1(C)CC1", "IC50", "nM", 0.02],
  ["C=C[C@@H]1C[C@]1(NC(=O)[C@@H]1C[C@@H]2CN1C(=O)[C@H](C1CCCCC1)NC(=O)O[C@@H]1C[C@H]1CCCCCc1c(nc3ccccc3c1OC1CCN(CC3CC3)CC1)O2)C(=O)NS(=O)(=O)C1(C)CC1", "IC50", "nM", 0.01],
  ["C=C[C@@H]1C[C@]1(NC(=O)[C@@H]1C[C@@H]2CN1C(=O)[C@H](C1CCCCC1)NC(=O)O[C@@H]1C[C@H]1CCCCCc1c(nc3ccccc3c1OC1CCN(CCOC)CC1)O2)C(=O)NS(=O)(=O)C1(C)CC1", "IC50", "nM", 0.02],
  ["C=C[C@@H]1C[C@]1(NC(=O)[C@@H]1C[C@@H]2CN1C(=O)[C@H](C1CCCCC1)NC(=O)O[C@@H]1C[C@H]1CCCCCc1c(nc3ccccc3c1OC1CCN(CCOC(F)(F)F)CC1)O2)C(=O)NS(=O)(=O)C1(C)CC1", "IC50", "nM", 0.15]
]}

###

system under test: NS3 protease (Hepatitis C virus subtype 1b, UniProt Q0ZMF1, R155K)
experiment summary: Inhibition of Hepatitis C virus genotype 1b NS3/4A protease R155K mutant assessed as substrate cleavage using Ac-C(Eu)DDMEEAbu(COO)ASK(QSY7)-amide as substrate incubated for 30 mins prior to substrate addition by time-resolved fluorescence assay
IC50 for assorted compounds

{"columns": ["mol smiles", "units text", "IC50"],
 "data": [
  ["C=C[C@@H]1C[C@]1(NC(=O)[C@@H]1C[C@@H]2CN1C(=O)[C@H](C1CCCCC1)NC(=O)O[C@@H]1C[C@H]1CCCCCc1c(nc3ccccc3c1OC1CCN(CC)CC1)O2)C(=O)NS(=O)(=O)C1(C)CC1", "pM", 110],
  ["C=C[C@@H]1C[C@]1(NC(=O)[C@@H]1C[C@@H]2CN1C(=O)[C@H](C(C)(C)C)NC(=O)O[C@@H]1C[C@H]1CCCCCc1c(nc3ccccc3c1O[C@H]1C[C@H]3CC[C@@H](C1)N3CCOC)O2)C(=O)NS(=O)(=O)C1(C)CC1", "pM", 20],
  ["C=C[C@@H]1C[C@]1(NC(=O)[C@@H]1C[C@@H]2CN1C(=O)[C@H](C1CCCCC1)NC(=O)O[C@@H]1C[C@H]1CCCCCc1c(nc3ccccc3c1OC1CCN(CC(F)(F)F)CC1)O2)C(=O)NS(=O)(=O)C1(C)CC1", "pM", 3400],
  ["C=C[C@@H]1C[C@]1(NC(=O)[C@@H]1C[C@@H]2CN1C(=O)[C@H](C1CCCCC1)NC(=O)O[C@@H]1C[C@H]1CCCCCc1c(nc3ccccc3c1OCCCN1CCOCC1)O2)C(=O)NS(=O)(=O)C1(C)CC1", "pM", 270],
  ["C=C[C@@H]1C[C@]1(NC(=O)[C@@H]1C[C@@H]2CN1C(=O)[C@H](C(C)(C)C)NC(=O)O[C@@H]1C[C@H]1CCCCCc1c(nc3ccccc3c1O[C@@H]1C[C@H]3CC[C@@H](C1)N3CC)O2)C(=O)NS(=O)(=O)C1(C)CC1", "pM", 120],
  ["C=C[C@@H]1C[C@]1(NC(=O)[C@@H]1C[C@@H]2CN1C(=O)[C@H](C1CCCCC1)NC(=O)O[C@@H]1C[C@H]1CCCCCc1c(nc3ccccc3c1OCCCN1CC(F)(F)C1)O2)C(=O)NS(=O)(=O)C1(C)CC1", "pM", 500],
  ["C=C[C@@H]1C[C@]1(NC(=O)[C@@H]1C[C@@H]2CN1C(=O)[C@H](C1CCCCC1)NC(=O)O[C@@H]1C[C@H]1CCCCCc1c(nc3ccccc3c1OC1CCN(CCF)CC1)O2)C(=O)NS(=O)(=O)C1(C)CC1", "pM", 130],
  ["C=C[C@@H]1C[C@]1(NC(=O)[C@@H]1C[C@@H]2CN1C(=O)[C@H](C(C)(C)C)NC(=O)O[C@@H]1C[C@H]1CCCCCc1c(nc3ccccc3c1O[C@@H]1C[C@H]3CC[C@@H](C1)N3CCOC)O2)C(=O)NS(=O)(=O)C1(C)CC1", "pM", 280]
]}

###

IC50 for assorted compounds
experiment summary: Inhibition of Hepatitis C virus genotype 1b NS3/4A protease assessed as substrate cleavage using Ac-C(Eu)DDMEEAbu(COO)ASK(QSY7)-amide as substrate incubated for 30 mins prior to substrate addition by time-resolved fluorescence assay
Parameters: species or system Hepatitis C virus subtype 1b
outcome measure: IC50 (pM)

{"columns": ["mol smiles", "outcome measure", "endpoint result"],
 "data": [
  ["C=C[C@@H]1C[C@]1(NC(=O)[C@@H]1C[C@@H]2CN1C(=O)[C@H](C1CCCCC1)NC(=O)O[C@@H]1C[C@H]1CCCCCc1c(nc3ccccc3c1OCCCN1CC(F)C1)O2)C(=O)NS(=O)(=O)C1(C)CC1", "IC50", 20],
  ["C=C[C@@H]1C[C@]1(NC(=O)[C@@H]1C[C@@H]2CN1C(=O)[C@H](C1CCCCC1)NC(=O)O[C@@H]1C[C@H]1CCCCCc1c(nc3ccccc3c1OCCCNC1CC(F)(F)C1)O2)C(=O)NS(=O)(=O)C1(C)CC1", "IC50", 10],
  ["C=C[C@@H]1C[C@]1(NC(=O)[C@@H]1C[C@@H]2CN1C(=O)[C@H](C(C)(C)C)NC(=O)O[C@@H]1C[C@H]1CCCCCc1c(nc3ccccc3c1O[C@H]1C[C@H]3CC[C@@H](C1)N3CCOC)O2)C(=O)NS(=O)(=O)C1(C)CC1", "IC50", 10],
  ["C=C[C@@H]1C[C@]1(NC(=O)[C@@H]1C[C@@H]2CN1C(=O)[C@H](C1CCCCC1)NC(=O)O[C@@H]1C[C@H]1CCCCCc1c(nc3ccccc3c1OC1CCN(CC(F)(F)F)CC1)O2)C(=O)NS(=O)(=O)C1(C)CC1", "IC50", 400]
]}

###

pIC50 for assorted molecules
system under test: NS3 protease (Hepatitis C virus subtype 1b, UniProt Q0ZMF1, R155K)
experiment summary: Inhibition of Hepatitis C virus genotype 1b NS3/4A protease R155K mutant assessed as substrate cleavage using Ac-C(Eu)DDMEEAbu(COO)ASK(QSY7)-amide as substrate incubated for 30 mins prior to substrate addition by time-resolved fluorescence assay
pIC50: −log10 of the molar value.
outcome measure: pIC50

{"columns": ["mol smiles", "system under test", "endpoint result"],
 "data": [
  ["C=C[C@@H]1C[C@]1(NC(=O)[C@@H]1C[C@@H]2CN1C(=O)[C@H](C1CCCCC1)NC(=O)O[C@@H]1C[C@H]1CCCCCc1c(nc3ccccc3c1OC1CCN(CCOC)CC1)O2)C(=O)NS(=O)(=O)C1(C)CC1", "NS3 protease (Hepatitis C virus subtype 1b, UniProt Q0ZMF1, R155K)", 9.74],
  ["C=C[C@@H]1C[C@]1(NC(=O)[C@@H]1C[C@@H]2CN1C(=O)[C@H](C1CCCCC1)NC(=O)O[C@@H]1C[C@H]1CCCCCc1c(nc3ccccc3c1OC1CCOCC1)O2)C(=O)NS(=O)(=O)C1(C)CC1", "NS3 protease (Hepatitis C virus subtype 1b, UniProt Q0ZMF1, R155K)", 9.59]
]}
